Source of measurements: patent US20250368745A1

Quick reference: pKd of the listed items.
Molecular target: T1, human IL-18BP (human, UniProt O95998 31-194)
T1 construct: UniProt printed as 095998; also called hIL-18BP
T1 sequence: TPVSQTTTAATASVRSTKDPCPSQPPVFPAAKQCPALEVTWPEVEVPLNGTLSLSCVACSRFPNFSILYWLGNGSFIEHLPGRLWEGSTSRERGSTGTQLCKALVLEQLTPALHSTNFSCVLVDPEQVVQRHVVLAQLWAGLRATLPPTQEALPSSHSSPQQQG
Experiment: BLI, apparent KD
pKd: −log10 of the molar value.
PARAMETER: pKd

• SA302a HC-T30E (antibody, V domains shown) VH: QVQLQESGPGLVKPSQTLSLTCTVSGYSIESDYNAHWIRQPPGKGLEWIGYIHYSGSTNYNPSLKSRVTISRDTSKNQFSLKLSSVTAADTAVYYCARNYGSIYVNYFDYWGQGTLVTVSS VL: EIVLTQSPATLSLSPGERATLSCSASSSVSYMYWYQQKPGQAPRPLIYRTSNLASGIPARFSGSGSGTDFTLTISSLEPEDFAVYYCQQYHSYPTFGGGTKVEIK = 8.68
• SA302a HC-N33bR (antibody, V domains shown) VH: QVQLQESGPGLVKPSQTLSLTCTVSGYSITSDYRAHWIRQPPGKGLEWIGYIHYSGSTNYNPSLKSRVTISRDTSKNQFSLKLSSVTAADTAVYYCARNYGSIYVNYFDYWGQGTLVTVSS VL: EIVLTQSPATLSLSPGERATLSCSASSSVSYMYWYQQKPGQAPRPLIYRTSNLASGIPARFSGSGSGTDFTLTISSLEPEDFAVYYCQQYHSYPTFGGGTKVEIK = 8.65
• SA302a HC-N33bF (antibody, V domains shown) VH: QVQLQESGPGLVKPSQTLSLTCTVSGYSITSDYFAHWIRQPPGKGLEWIGYIHYSGSTNYNPSLKSRVTISRDTSKNQFSLKLSSVTAADTAVYYCARNYGSIYVNYFDYWGQGTLVTVSS VL: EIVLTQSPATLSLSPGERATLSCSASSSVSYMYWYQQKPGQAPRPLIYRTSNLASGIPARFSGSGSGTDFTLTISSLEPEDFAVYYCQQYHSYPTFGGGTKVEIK = 8.28
